species on record: Bos taurus; experiment: Inhibition of calf thymus topoisomerase 1-mediated relaxation of supercoiled pBR322 at 100 uM after 60 mins using ethidium bromide staining by agarose gel electrophoresis
Calls of active or inactive are those of the source. The rule behind the calls is not given here.
quantity name: Activity

Note to self: Activity recorded for `CC[C@@]1(OC(=O)NCCN2C(=O)CCCCCCCCC2=O)C(=O)OCc2c1cc1n(c2=O)Cc2cc3ccccc3nc2-1` was inactive

The recorded Activity for `CC[C@@]1(OC(=O)NCCN2C(=O)CCCSSCCCC2=O)C(=O)OCc2c1cc1n(c2=O)Cc2cc3ccccc3nc2-1` is inactive

Notebook: `CC[C@@]1(OC(=O)NCCNC(=O)CCSSCCC(=O)NCCNC(=O)O[C@]2(CC)C(=O)OCc3c2cc2n(c3=O)Cc3cc4ccccc4nc3-2)C(=O)OCc2c1cc1n(c2=O)Cc2cc3ccccc3nc2-1` , Activity read as inactive

====

test system: B3; experiment: Induction apoptosis in mouse B3 cells assessed as ROS production at 10 uM/L using DCFH-DA by flow cytometry relative to control; assay type: functional, cell-based
The source made the active and inactive calls. The rule behind the calls is not given here.
Response enum: T = active, F = inactive

What is the recorded call for this molecule in the test? `CC[C@@]1(OC(=O)NCCN2C(=O)CCCCCCCCC2=O)C(=O)OCc2c1cc1n(c2=O)Cc2cc3ccccc3nc2-1` F

Please indicate how the test categorized `CC[C@@]1(OC(=O)NCCN2C(=O)CCSSCCC2=O)C(=O)OCc2c1cc1n(c2=O)Cc2cc3ccccc3nc2-1` . F

Dear colleague, could you share the recorded outcome for `CC[C@@]1(OC(=O)NCCNC(=O)CCCSSCCCC(=O)NCCNC(=O)O[C@]2(CC)C(=O)OCc3c2cc2n(c3=O)Cc3cc4ccccc4nc3-2)C(=O)OCc2c1cc1n(c2=O)Cc2cc3ccccc3nc2-1` when you have a moment? T

Read the next record carefully.
Which outcome was entered for the molecule `CC[C@@]1(OC(=O)NCCNC(=O)CCCCCCCCC(=O)NCCNC(=O)O[C@]2(CC)C(=O)OCc3c2cc2n(c3=O)Cc3cc4ccccc4nc3-2)C(=O)OCc2c1cc1n(c2=O)Cc2cc3ccccc3nc2-1` in this test? T

====

system: A-431; assay: Cytotoxicity against human A431 cells after 72 hrs by trypan blue assay; assay type: functional, cell-based; settings: A-431, 72 h
quantity name: pIC50
Field pIC50 (float): negative decimal logarithm of the concentration in molar.

// below: answered compounds
Reported pIC50 ( `CC[C@@]1(OC(=O)NCCN2C(=O)CCSSCCC2=O)C(=O)OCc2c1cc1n(c2=O)Cc2cc3ccccc3nc2-1` ) = 5.53

GET /value?item= `CC[C@@]1(O)C(=O)OCc2c1cc1n(c2=O)Cc2cc3ccccc3nc2-1` &field=pIC50 returns 7.96

Per the record, `CC[C@@]1(OC(=O)NCCNC(=O)CCCSSCCCC(=O)NCCNC(=O)O[C@]2(CC)C(=O)OCc3c2cc2n(c3=O)Cc3cc4ccccc4nc3-2)C(=O)OCc2c1cc1n(c2=O)Cc2cc3ccccc3nc2-1` has pIC50 of 7.52

More entries:
According to the records, this compound `CC[C@@]1(OC(=O)NCCN2C(=O)CCCSSCCCC2=O)C(=O)OCc2c1cc1n(c2=O)Cc2cc3ccccc3nc2-1` displays pIC50 of 5.92

According to the records, this compound `CC[C@@]1(OC(=O)NCCN2C(=O)CCCCCCCCC2=O)C(=O)OCc2c1cc1n(c2=O)Cc2cc3ccccc3nc2-1` displays pIC50 of 5.73

// field: pIC50; key: `CC[C@@]1(OC(=O)NCCNC(=O)CCCCCCCCC(=O)NCCNC(=O)O[C@]2(CC)C(=O)OCc3c2cc2n(c3=O)Cc3cc4ccccc4nc3-2)C(=O)OCc2c1cc1n(c2=O)Cc2cc3ccccc3nc2-1` ; value = 7.10

Reported pIC50 for `CC[C@@]1(OC(=O)NCCNC(=O)CCSSCCC(=O)NCCNC(=O)O[C@]2(CC)C(=O)OCc3c2cc2n(c3=O)Cc3cc4ccccc4nc3-2)C(=O)OCc2c1cc1n(c2=O)Cc2cc3ccccc3nc2-1` was 6.82
